self-splicing fitness (ln) values for the sequences below.
Experiment: self-splicing fitness, log relative to wild type (ln ratio); higher = more splicing; Tetrahymena group I intron in knt gene, E. coli kanamycin selection, DiMSum; sequences stand for … in CUCUCU…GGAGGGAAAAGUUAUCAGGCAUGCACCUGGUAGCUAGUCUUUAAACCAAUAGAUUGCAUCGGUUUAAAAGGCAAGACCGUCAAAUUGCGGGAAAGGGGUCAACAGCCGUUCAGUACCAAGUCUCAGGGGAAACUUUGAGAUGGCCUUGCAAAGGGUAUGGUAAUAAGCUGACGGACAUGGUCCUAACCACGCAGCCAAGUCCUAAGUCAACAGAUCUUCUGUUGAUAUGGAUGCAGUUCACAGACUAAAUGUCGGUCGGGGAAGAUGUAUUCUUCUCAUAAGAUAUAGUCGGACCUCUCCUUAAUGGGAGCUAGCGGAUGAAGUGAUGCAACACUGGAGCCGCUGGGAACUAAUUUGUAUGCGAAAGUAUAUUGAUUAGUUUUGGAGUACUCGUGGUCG;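 further: selection with 25 µg/mL kanamycin versus none on LB agar overnight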
Conditions: 37 °C
// print number alone

Consider the reported self-splicing fitness (ln) for these sequences:
{"columns": ["entrySequence", "self-splicing fitness (ln)"],
 "data": [
  ["UGAGAGCAAUAUUACGUCCG", -1.19],
  ["UUGCAGCAAUAUUACGACUU", -0.588],
  ["ACUCAGCAAUAUUACGGAUU", 0.0271],
  ["AUGAAGCAAUAUUACGUGUC", -2.26],
  ["UAUGAGCAAUAUUACGCUGU", -3.21],
  ["AAGGAGCAAUAUUACGCCGA", -0.979],
  ["AGGAAGCAAUAUUACGGCUA", 0.0571],
  ["GUCUAGCAAUAUUACGCCCC", -0.182],
  ["UAGUAGCAAUAUUACGUGUG", -1.23],
  ["AGCCAGCAAUAUUACGGCAC", -0.402]
]}

Lookup: Give its self-splicing fitness (ln) value. Item: UAUGAGCAAUAUUACGCAGU
Found: -0.419

Lookup: Entry CCGCAGCAAUAUUACGGGCU has what self-splicing fitness (ln)?
Found: -3.05

Lookup: Suppose we examine the sequence CAGCAGCAAUAUUACGUAUU ; what self-splicing fitness (ln) value has been reported?
Found: -2.23
